Where do these numbers come from? They come from patent US12195427B2.

system: MASP-2 CCP2-SP (Homo sapiens (Human), UniProt O00187)
Sequence (O00187 445-686): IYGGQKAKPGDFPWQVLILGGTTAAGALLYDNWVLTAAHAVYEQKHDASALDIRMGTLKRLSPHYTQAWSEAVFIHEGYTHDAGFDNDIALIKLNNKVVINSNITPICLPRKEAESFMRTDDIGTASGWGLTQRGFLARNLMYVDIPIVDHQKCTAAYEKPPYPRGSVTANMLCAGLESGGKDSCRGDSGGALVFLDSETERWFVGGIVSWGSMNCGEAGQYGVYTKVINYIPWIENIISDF
Sequence (O00187 364-432 partner): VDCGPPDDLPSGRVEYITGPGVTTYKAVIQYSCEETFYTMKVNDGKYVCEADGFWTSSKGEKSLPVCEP
assay notes: MASP-2 co-crystallization, X-ray crystallography and structure analysis (H-bonds, van der Waals contacts)
Design: unit not given beside the values
condition parameters: Table A5-2 pharmacophore distance, S3/S4 region
Counter-ions that a name gives are not always drawn.
Please use fulfilled whenever d(N2,C4) is not below 8, and not fulfilled whenever it is.

Some solved cases for reference:
{"molecule": "Cc1nc(N)ccc1CNC(=O)[C@H](C)NC(=O)[C@H]1C[C@H](Cc2ccccc2Br)CN1.O=C(O)C(F)(F)F.O=C(O)C(F)(F)F [1372_A]", "group": "not fulfilled"}
{"molecule": "C[C@H](NC(=O)[C@H](N)CCc1cccc(Cl)c1)C(=O)NCc1ccc(C(=N)N)cc1 [compound 1081]", "group": "not fulfilled"}
{"molecule": "Cc1nc(N)ccc1CNC(=O)[C@H](C)NC(=O)[C@H]1C[C@H](Cc2cc(Cl)cc(Cl)c2)CN1 [compound 1435, Dihydrochloride]", "group": "fulfilled"}

For this molecule, is measured d(N2,C4) 8 or higher? C[C@H](NC(=O)[C@H](N)CCc1cc(Cl)cc(Cl)c1)C(=O)NCc1ccc(C(=N)N)cc1 [compound 1118]
not fulfilled
